Compiled IC50 measurements on Prostaglandin G/H synthase 2 (Ovis aries) taken from the literature.
Categories are assigned from the measured IC50 using these intervals: low (below 2 µM), intermediate (2 µM to below 5 µM), high (5 µM or more)

Query :: Input O=C1NN(c2ccccc2)C(c2cccnc2)=N/C1=C/c1cccnc1 ; output its category
Result :: low

Query :: Input O=C(NN1C(=O)/C(=C/c2cn(-c3ccccc3)nc2-c2ccc(Br)cc2)SC1=S)c1cc2ccccc2o1 ; output its category
Result :: high

Query :: Input Cc1[nH]n(-c2ccccc2)c(=O)c1CN=C(N)N ; output its category
Result :: high

Query :: Input CN(C)c1ccc(/C=C2/N=C(c3cccnc3)N(c3ccccc3)NC2=O)cc1 ; output its category
Result :: low

Query :: Input COc1ccc(/C=C2\SC(=S)N(NC(=O)c3sc4ccccc4c3Cl)C2=O)cc1 ; output its category
Result :: low

Query :: Input Cc1[nH]n(-c2ccccc2)c(=O)c1CNC(N)=S ; output its category
Result :: high

Query :: Input O=c1oc2ccccc2cc1-c1nnc(-c2ccccc2)o1 ; output its category
Result :: high

Query :: Input CS(=O)(=O)Nc1ccc(-c2cc(-c3cccs3)c(C#N)c(=O)[nH]2)cc1 ; output its category
Result :: high

Query :: Input CC(C)Cc1ccc(-c2cc(-c3cccs3)c(C#N)c(=O)[nH]2)cc1 ; output its category
Result :: intermediate

Query :: Input CC(C)Cc1ccc(C2=C/C(=C\c3c(Cl)cccc3Cl)C(=O)O2)cc1 ; output its category
Result :: low

Query :: Input Cc1ccccc1Nc1nnc(-c2cc3ccccc3oc2=O)o1 ; output its category
Result :: high

Query :: Input COc1cc(/C=C2\SC(=S)N(NC(=O)c3sc4ccccc4c3Cl)C2=O)ccc1O ; output its category
Result :: intermediate

Query :: Input Cc1ccc(-c2nnc(-c3cc4ccccc4oc3=O)o2)cc1 ; output its category
Result :: low

Query :: Input O=C(NN1C(=O)CSC1=S)c1sc2ccccc2c1Cl ; output its category
Result :: intermediate

Query :: Input COc1ccc(-c2nn(-c3ccccc3)cc2/C=C2\SC(=S)N(NC(=O)c3cc4ccccc4o3)C2=O)cc1 ; output its category
Result :: intermediate

Query :: Input COc1cc(C2CC(c3ccc(Br)cc3)=NN2c2ccc(S(C)(=O)=O)cc2)cc(OC)c1OC (stereo unspecified) ; output its category
Result :: low

Query :: Input CC(C)Cc1ccc(C2=C/C(=C\c3ccccc3Cl)C(=O)O2)cc1 ; output its category
Result :: intermediate

Query :: Input O=C(NN1C(=O)/C(=C/c2ccc(Cl)cc2)SC1=S)c1sc2ccccc2c1Cl ; output its category
Result :: low

Query :: Input CS(=O)(=O)Nc1ccc(-c2cc(-c3ccco3)c(C#N)c(=O)[nH]2)cc1 ; output its category
Result :: intermediate

Query :: Input Cc1ccc(-c2cc(-c3ccc(CC(C)C)cc3)[nH]c(=O)c2C#N)cc1 ; output its category
Result :: intermediate

====

- targetDesc: Prostaglandin G/H synthase 2 (Ovis aries, UniProt P79208)
- Sequence (P79208 whole entry): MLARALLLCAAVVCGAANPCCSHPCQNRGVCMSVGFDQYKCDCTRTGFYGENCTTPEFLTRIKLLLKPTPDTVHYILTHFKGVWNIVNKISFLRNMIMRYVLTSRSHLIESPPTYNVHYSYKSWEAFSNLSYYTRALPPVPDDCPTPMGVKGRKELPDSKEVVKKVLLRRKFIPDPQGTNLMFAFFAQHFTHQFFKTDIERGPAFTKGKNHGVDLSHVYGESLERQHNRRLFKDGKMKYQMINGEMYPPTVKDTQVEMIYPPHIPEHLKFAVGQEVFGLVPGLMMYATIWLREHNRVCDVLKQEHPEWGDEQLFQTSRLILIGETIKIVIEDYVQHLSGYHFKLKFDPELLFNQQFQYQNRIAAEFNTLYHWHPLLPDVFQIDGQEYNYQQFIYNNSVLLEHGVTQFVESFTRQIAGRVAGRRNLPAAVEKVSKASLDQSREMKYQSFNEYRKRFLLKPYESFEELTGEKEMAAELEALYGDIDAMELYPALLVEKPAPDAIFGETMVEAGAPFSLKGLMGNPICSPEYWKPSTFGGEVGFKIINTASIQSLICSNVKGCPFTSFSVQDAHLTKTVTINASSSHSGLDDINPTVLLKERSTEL
Compiled IC50 measurements on Prostaglandin G/H synthase 2 (Ovis aries, UniProt P79208) taken from the literature.
The threshold is 1 µM. Values of IC50 beneath it are tagged met; values meeting or exceeding it are tagged not met.

Query :: Hello, I'm reviewing records and need to know if IC50 of CS(=O)(=O)Nc1ccc(C2=NN(c3ccc(S(N)(=O)=O)cc3)C(c3ccccc3)C2)cc1 (stereo unspecified) is below 1 µM. Could you check?
Result :: not met

Query :: Hello, I'm reviewing records and need to know if IC50 of O=C(NN1C(=O)CSC1=S)c1cc2ccccc2o1 is below 1 µM. Could you check?
Result :: not met

Query :: Hello, I'm reviewing records and need to know if IC50 of Cc1[nH]n(-c2ccccc2)c(=O)c1CNC(N)=O is below 1 µM. Could you check?
Result :: not met

Query :: Hello, I'm reviewing records and need to know if IC50 of O=C(NN1C(=O)/C(=C/c2ccccc2)SC1=S)c1sc2ccccc2c1Cl is below 1 µM. Could you check?
Result :: not met

Query :: Hello, I'm reviewing records and need to know if IC50 of Cc1ccc(-c2cc(-c3ccc(NS(C)(=O)=O)cc3)[nH]c(=O)c2C#N)cc1 is below 1 µM. Could you check?
Result :: not met

Query :: Hello, I'm reviewing records and need to know if IC50 of CS(=O)(=O)Nc1ccc(C2=NN(c3ccc(S(N)(=O)=O)cc3)C(c3cccs3)C2)cc1 (stereo unspecified) is below 1 µM. Could you check?
Result :: not met

Query :: Hello, I'm reviewing records and need to know if IC50 of CC(C)Cc1ccc(C2=C/C(=C\c3ccc(Cl)cc3Cl)C(=O)O2)cc1 is below 1 µM. Could you check?
Result :: not met

Query :: Hello, I'm reviewing records and need to know if IC50 of O=C1NN(c2ccccc2)C(c2cccnc2)=N/C1=C/c1ccccc1 is below 1 µM. Could you check?
Result :: met

Query :: Hello, I'm reviewing records and need to know if IC50 of Cc1[nH]n(-c2ccccc2)c(=O)c1CNC(=O)NN is below 1 µM. Could you check?
Result :: not met

Query :: Hello, I'm reviewing records and need to know if IC50 of COc1cc(C2CC(c3ccc(Cl)cc3)=NN2c2ccc(S(N)(=O)=O)cc2)cc(OC)c1OC (stereo unspecified) is below 1 µM. Could you check?
Result :: met

Query :: Hello, I'm reviewing records and need to know if IC50 of NS(=O)(=O)c1ccc(N2N=C(c3ccc(Br)cc3)CC2c2ccc(Cl)cc2)cc1 (stereo unspecified) is below 1 µM. Could you check?
Result :: not met

Query :: Hello, I'm reviewing records and need to know if IC50 of Cc1[nH]n(-c2ccccc2)c(=O)c1CNC(=S)Nc1ccccc1 is below 1 µM. Could you check?
Result :: met

Query :: Hello, I'm reviewing records and need to know if IC50 of N#Cc1c(-c2cccs2)cc(-c2ccc([N+](=O)[O-])cc2)[nH]c1=O is below 1 µM. Could you check?
Result :: met

Query :: Hello, I'm reviewing records and need to know if IC50 of O=C1NN(c2ccccc2)C(c2cccnc2)=N/C1=C/c1ccc(O)cc1 is below 1 µM. Could you check?
Result :: met

Query :: Hello, I'm reviewing records and need to know if IC50 of N#Cc1c(-c2ccco2)cc(-c2ccc([N+](=O)[O-])cc2)[nH]c1=O is below 1 µM. Could you check?
Result :: not met

Query :: Hello, I'm reviewing records and need to know if IC50 of CC(C)Cc1ccc(-c2cc(-c3ccccc3)c(C#N)c(=O)[nH]2)cc1 is below 1 µM. Could you check?
Result :: not met
